# System: Mycosphaerella graminicola; Anamorph: Septoria tritici
# assayText: Leaf blotch of wheat (SEPTTR) fungicidal activity on wheat seedlings
# Format: in vivo
# experimentalSetup: Zymoseptoria tritici, 72 h, 3 Day Curative, read-out: Disease Control SEPTTR 3 DC
reportedEndpoint: pest or weed control at 100 ppm

COc1ccnc(C(=O)N[C@H]2COC[C@H](Cc3ccccc3)[C@@H](OC3CCCCC3)[C@H](C)OC2=O)c1O: 80 to 100%
CCCCCO[C@@H]1[C@@H](Cc2ccccc2)COC[C@H](NC(=O)c2nccc(OC)c2O)C(=O)O[C@H]1C: 0 to 80%
COc1ccnc(C(=O)N[C@H]2COC[C@H](Cc3ccccc3)[C@@H](OCC(C)C)[C@H](C)OC2=O)c1OCOC(=O)C(C)C: 80 to 100%
COc1ccnc(C(=O)N[C@H]2COC[C@H](Cc3ccccc3)[C@@H](OCCC(C)OC)[C@H](C)OC2=O)c1O (some centres unmarked): 80 to 100%
CCCC(C)O[C@@H]1[C@@H](Cc2ccccc2)COC[C@H](NC(=O)c2nccc(OC)c2O)C(=O)O[C@H]1C (some centres unmarked): 80 to 100%
COc1ccnc(C(=O)N[C@H]2COC[C@H](Cc3ccccc3)[C@@H](OC/C=C/C(F)(F)F)[C@H](C)OC2=O)c1O: 0 to 80%
CCCCCO[C@@H]1[C@@H](Cc2ccccc2)COC[C@H](NC(=O)c2nccc(OC)c2OCOC(C)=O)C(=O)O[C@H]1C: 80 to 100%
COc1ccnc(C(=O)N[C@H]2COC[C@H](Cc3ccccc3)[C@@H](OC3CCCCC3)[C@H](C)OC2=O)c1OCOC(C)=O: 80 to 100%
COc1ccnc(C(=O)N[C@H]2COC[C@H](Cc3ccccc3)[C@@H](OC(=O)C3CC3)[C@H](C)OC2=O)c1OCOC(C)=O: 80 to 100%
COC(=O)/C=C/O[C@@H]1[C@@H](Cc2ccccc2)COC[C@H](NC(=O)c2nccc(OC)c2OCOC(C)=O)C(=O)O[C@H]1C: 80 to 100%
COc1ccnc(C(=O)N[C@H]2COC[C@H](Cc3ccccc3)[C@@H](OC3CCCC3)[C@H](C)OC2=O)c1OCOC(C)=O: 80 to 100%
COCCCO[C@@H]1[C@@H](Cc2ccccc2)COC[C@H](NC(=O)c2nccc(OC)c2O)C(=O)O[C@H]1C: 0 to 80%
COc1ccnc(C(=O)N[C@H]2COC[C@H](Cc3ccccc3)[C@@H](OCCC(=O)N(C)C)[C@H](C)OC2=O)c1OCOC(C)=O: 0 to 80%
COc1ccnc(C(=O)N[C@H]2COC[C@H](Cc3ccccc3)[C@@H](Oc3ccccc3)[C@H](C)OC2=O)c1O: 80 to 100%
COc1ccnc(C(=O)N[C@H]2COC[C@H](Cc3ccccc3)[C@@H](OC3CCCC3)[C@H](C)OC2=O)c1O: 80 to 100%
COC(=O)/C=C/O[C@@H]1[C@@H](Cc2ccccc2)COC[C@H](NC(=O)c2nccc(OC)c2O)C(=O)O[C@H]1C: 0 to 80%
COc1ccnc(C(=O)N[C@H]2COC[C@H](Cc3ccccc3)[C@@H](OCCC(C)C)[C@H](C)OC2=O)c1O: 0 to 80%
COc1ccnc(C(=O)N[C@H]2COC[C@H](Cc3ccccc3)[C@@H](Oc3ccccc3)[C@H](C)OC2=O)c1OCOC(C)=O: 80 to 100%
COc1ccnc(C(=O)N[C@H]2COC[C@H](Cc3ccccc3)[C@@H](OCC(F)F)[C@H](C)OC2=O)c1OCOC(C)=O: 80 to 100%
COc1ccnc(C(=O)N[C@H]2COC[C@H](Cc3ccccc3)[C@@H](OCCCC(F)(F)F)[C@H](C)OC2=O)c1O: 80 to 100%
COc1ccnc(C(=O)N[C@H]2COC[C@H](Cc3ccccc3)[C@@H](OCCCc3ccccc3)[C@H](C)OC2=O)c1OCOC(C)=O: 80 to 100%
CCCO[C@@H]1[C@@H](Cc2ccccc2)COC[C@H](NC(=O)c2nccc(OC)c2O)C(=O)O[C@H]1C: 80 to 100%
COCCCO[C@@H]1[C@@H](Cc2ccccc2)COC[C@H](NC(=O)c2nccc(OC)c2OCOC(C)=O)C(=O)O[C@H]1C: 80 to 100%
COc1ccnc(C(=O)N[C@H]2COC[C@H](Cc3ccccc3)[C@@H](OCCC(C)OC)[C@H](C)OC2=O)c1OCOC(C)=O (some centres unmarked): 80 to 100%
COc1ccnc(C(=O)N[C@H]2COC[C@H](Cc3ccccc3)[C@@H](OC(=O)C(C)C)[C@H](C)OC2=O)c1O: 80 to 100%
COc1ccnc(C(=O)N[C@H]2COC[C@H](Cc3ccccc3)[C@@H](OCC(C)C)[C@H](C)OC2=O)c1OCOC(=O)C(C)(C)C: 80 to 100%
